Molecular target: nucleolin (UniProt P19338)
Sequence (P19338 2-710): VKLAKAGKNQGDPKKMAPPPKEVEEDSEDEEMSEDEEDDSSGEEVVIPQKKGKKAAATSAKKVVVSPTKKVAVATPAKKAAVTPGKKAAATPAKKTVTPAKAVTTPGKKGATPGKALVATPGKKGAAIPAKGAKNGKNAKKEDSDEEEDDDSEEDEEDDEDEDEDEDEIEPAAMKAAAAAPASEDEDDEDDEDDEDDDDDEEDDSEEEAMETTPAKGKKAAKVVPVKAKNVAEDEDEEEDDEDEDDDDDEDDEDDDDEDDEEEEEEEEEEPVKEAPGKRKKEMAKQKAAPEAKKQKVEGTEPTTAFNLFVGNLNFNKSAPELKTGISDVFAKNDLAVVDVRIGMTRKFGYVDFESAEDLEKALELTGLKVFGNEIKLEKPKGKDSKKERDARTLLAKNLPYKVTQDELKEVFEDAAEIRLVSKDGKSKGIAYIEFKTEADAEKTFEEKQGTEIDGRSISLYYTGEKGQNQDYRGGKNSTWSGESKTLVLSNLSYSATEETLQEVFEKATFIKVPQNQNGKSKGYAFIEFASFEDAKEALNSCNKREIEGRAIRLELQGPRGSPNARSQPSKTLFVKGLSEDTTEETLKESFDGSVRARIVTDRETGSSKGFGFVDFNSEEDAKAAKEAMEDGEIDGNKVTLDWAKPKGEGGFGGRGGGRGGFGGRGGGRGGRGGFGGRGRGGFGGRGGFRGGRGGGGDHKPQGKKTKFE
Assay: SPR
Details: U6 = 5-fluorouridine (5FU replaces T6); 3'-amino DNA conjugated to paclitaxel through thioether linker; SPR: 1x PBS, nucleolin on CM5 chip, analyte 0.156-10 uM, regeneration 50 mM NaOH, temperature not stated; ELONA: 1x PBS, 1 mM MgCl2, 0.05% Tween 20, 1 uM …
OBSERVATION TYPE: Kd

GGTGGUGGTGGTTGTGGTGGTGGTGG [FASP (FA-paclitaxel, thioether linker)]
61.7 nM

====

Target: nucleolin (UniProt P19338)
Experiment: SPR
Conditions: 3'-amino DNA conjugated to paclitaxel through thioether linker; SPR: 1x PBS, nucleolin on CM5 chip, analyte 0.156-10 uM, regeneration 50 mM NaOH, temperature not stated; ELONA: 1x PBS, 1 mM MgCl2, 0.05% Tween 20, 1 uM …
pKd: −log10 of the molar value.
OBSERVATION TYPE: pKd

GGTGGTGGTGGTTGTGGTGGTGGTGG [ASP (AS1411-paclitaxel, thioether linker)]
6.60

====

Biological target: nucleolin (UniProt P19338)
Test: SPR
Settings: U6 = 5-fluorouridine (5FU replaces T6; printed F); SPR: 1x PBS, nucleolin on CM5 chip, analyte 0.156-10 uM, regeneration 50 mM NaOH, temperature not stated; ELONA: 1x PBS, 1 mM MgCl2, 0.05% Tween 20, 1 uM …
pKd: −log10 of the molar value.
OBSERVATION TYPE: pKd

GGTGGUGGTGGTTGTGGTGGTGGTGG [FA (sequence 2, 5FU at site 6 of AS1411)]
7.61
